Molecular target: Aβ40 (Homo sapiens, UniProt P05067)
Construct: 200 μM of a test compound and 20 μM of solubilized Aβ40
Test: mass spectroscopy (MS) assay, binding to Aβ
Design: key: “+” = active; “−” = inactive; “pr” = promoting
Settings: 200 μM test compound, 20 μM solubilized Aβ40, pH 7.4; ability to bind to Aβ
Description: Test compounds were purchased from commercial sources or synthesized and screened by thioflavin T fluorescent assay (“ThT assay”). […] And in the mass spectroscopy (“MS”) assay, samples were prepared as aqueous solutions containing 20% ethanol, 200 μM of a test compound and 20 μM of solubilized Aβ40. […] The solutions were then analyzed by electrospray ionization mass spectroscopy using a Waters ZQ 4000 mass spectrometer. […]
measured-endpoint: MS Assay

{"compound": "N=C(N)c1ccc2nc(-c3ccc(-c4ccc(-c5nc6ccc(C(=N)N)cc6[nH]5)cc4)cc3)[nH]c2c1", "reported-value": "+"}
{"compound": "c1cc2[nH]c(-c3ccc4[nH]c(CCc5nc6cc(-c7nc8cc(C9=NCCN9)ccc8[nH]7)ccc6[nH]5)nc4c3)nc2cc1C1=NCCN1", "reported-value": "+"}
{"compound": "CC(=N)Nc1ccc(-c2ccc(-c3ccc(NC(C)=N)cc3C)o2)c(C)c1", "reported-value": "+"}
{"compound": "COc1cc(C2=NCCN2)ccc1OCCCOc1ccc(C2=NCCN2)cc1OC", "reported-value": "−"}
{"compound": "COC(=O)C(CCOc1ccc(C(=N)NO)cc1)CCOc1ccc(C(=N)NO)cc1 (centres unmarked)", "reported-value": "+"}

# input Give the reported MS Assay for this compound. "CC(C)NC(=N)c1ccc(OCc2ccc(COc3ccc(C(=N)NC(C)C)cc3)c3ccccc23)cc1"
# output +

# input Give the reported MS Assay for this compound. "N=C(N)c1ccc2[nH]c(Cc3nc4cc([N+](=O)[O-])ccc4[nH]3)nc2c1"
# output +

# input Give the reported MS Assay for this compound. "Cc1cc(C(=N)N)ccc1-c1ccc(-c2ccc(C(=N)N)cc2C)o1"
# output −

====

target: Aβ40 (Homo sapiens, UniProt P05067); construct: 200 μM of a test compound and 20 μM of solubilized Aβ40; experiment: mass spectroscopy (MS) assay, binding to Aβ; set-up: key: “+” = active; “−” = inactive; “pr” = promoting; settings: 200 μM test compound, 20 μM solubilized Aβ40, pH 7.4; ability to bind to Aβ
measured-endpoint: MS Assay

Recorded results for 10 molecules are shown here.
{"molecule": "CC(C)NC(=N)c1ccc(COc2ccc3ccc(OCc4ccc(C(=N)NC(C)C)cc4)cc3c2)cc1 [Compound 90]", "MS Assay": "+"}
{"molecule": "N=C(N)c1ccc(OCCCCOc2ccc(C(=N)N)cc2)cc1 [Compound 5]", "MS Assay": "+"}
{"molecule": "Cc1cc(C(=N)N)ccc1-c1ccc(-c2nc3ccc(C(=N)N)cc3[nH]2)o1 [Compound 131]", "MS Assay": "+"}
{"molecule": "Br.N=C(N)c1ccc(OCCCCCCCCBr)cc1 [Compound 44]", "MS Assay": "+"}
{"molecule": "N=C(N)c1ccc2[nH]c(-c3ccc4c(=O)cc(-c5ccccc5)oc4c3)nc2c1 [Compound 119]", "MS Assay": "+"}
{"molecule": "COc1cc(C(=N)N)ccc1OC/C=C\\COc1ccc(C(=N)N)cc1OC [Compound 86]", "MS Assay": "+"}
{"molecule": "N=C(N)c1ccc2nc(-c3ccc4cc(-c5nc6ccc(C(=N)N)cc6[nH]5)ccc4c3)[nH]c2c1 [Compound 110]", "MS Assay": "+"}
{"molecule": "N=C(N)c1ccc(NC(=O)CC(=O)Nc2ccc(C(N)N)cc2)cc1 [Compound 98]", "MS Assay": "+"}
{"molecule": "N=C(N)c1ccc(OCCCCCOc2ccc(-c3nc4cc(C(=N)N)ccc4[nH]3)cc2)cc1 [Compound 94]", "MS Assay": "+"}
{"molecule": "N=C(N)c1ccc(-c2ccc(-c3nc4cc(C(=N)N)ccc4o3)o2)cc1 [Compound 129]", "MS Assay": "+"}

# input Give the reported MS Assay for this molecule. N=C(N)c1cccc(OCCC(O)COc2cccc(C(=N)N)c2)c1 (centres unmarked) [Compound 79]
# output +

# input Give the reported MS Assay for this molecule. CC(C)NC(=N)c1cccc(COc2ccc3ccc(OCc4cccc(C(=N)NC(C)C)c4)cc3c2)c1 [Compound 91]
# output +

# input Give the reported MS Assay for this molecule. N=C(N)c1ccc(-c2ccc(-c3nc4ccccc4[nH]3)o2)cc1 [Compound 122]
# output +

# input Give the reported MS Assay for this molecule. N=C(N)c1ccc2nc(-c3ccc(Cc4ccc(-c5nc6ccc(C(=N)N)cc6[nH]5)cc4)cc3)[nH]c2c1 [Compound 114]
# output +

# input Give the reported MS Assay for this molecule. CC(C)c1ccc(OCc2ccc(C(=N)N)cc2)cc1 [Compound 70]
# output +

# input Give the reported MS Assay for this molecule. N=C(N)c1ccc(COc2ccc([N+](=O)[O-])cc2)cc1 [Compound 67]
# output −

# input Give the reported MS Assay for this molecule. N=C(N)c1ccc2nc(-c3ccc(CCc4ccc(-c5nc6ccc(C(=N)N)cc6[nH]5)s4)cc3)[nH]c2c1 [Compound 116]
# output +

====

Molecular target: Aβ (Homo sapiens)
Construct: Aβ peptide: Aβ (1-40) 95% purity (American Peptide Company, Inc, Sunnyvale, Calif. USA)
Test: circular dichroism (CD) assay, inhibition of fibrillogenesis
Format: biochemical
Design: key: “+” = active; “−” = inactive; “pr” = promoting
Settings: soluble Aβ, 37° C., 190-240 nm
Method: Test compounds were purchased from commercial sources or synthesized and screened by thioflavin T fluorescent assay (“ThT assay”). […] In the circular dichroism (“CD”) assay, samples were transferred to 0.1-cm path-length quartz cuvettes and CD scans were taken using a Jasco J-715 spectropolarimeter. Readings were taken at 37° C., between 190 and 240 nm, with a resolution of 0.1 nm and a bandwidth of 1 nm. […]

{"structure-smiles": "N=C(N)c1ccc2nc(-c3ccc(Cc4ccc(-c5nc6ccc(C(=N)N)cc6[nH]5)cc4)cc3)[nH]c2c1", "CD": "−"}
{"structure-smiles": "CC(C)NC(=N)c1ccc(OCc2ccc(COc3ccc(C(=N)NC(C)C)cc3)c3ccccc23)cc1", "CD": "+"}
{"structure-smiles": "N=C(N)c1ccc(-c2cc(-c3cccc(C(=N)N)c3)no2)cc1", "CD": "−"}
{"structure-smiles": "N=C(Nc1ccc(OCCCCCOc2ccc(NC(=N)c3ccccc3)cc2)cc1)c1ccccc1", "CD": "+"}

====

molecular target: Aβ (1-40) (Homo sapiens, UniProt P05067); construct: Aβ peptide: Aβ (1-40) 95% purity (American Peptide Company, Inc, Sunnyvale, Calif. USA); purchased American Peptide Company, Inc, Sunnyvale, Calif; USA; assay: thioflavin T fluorescent assay (ThT assay) for fibrillogenesis; type: biochemical; design: key: “+” = active; “−” = inactive; “pr” = promoting; conditions: Aβ (1-40) 20 μM, 5 μM Thioflavin T, pH 7.40, 37° C.; inhibition of fibrillogenesis
Sequence (P05067 672-711 limits assumed): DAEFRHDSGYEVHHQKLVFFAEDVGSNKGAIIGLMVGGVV
measured-endpoint: ThT Assay

{"compound": "N=C(N)c1ccc(OCc2cccc(COc3ccc(C(=N)N)cc3)c2)cc1", "ThT Assay": "+"}
{"compound": "N=C(N)c1ccc(OCCCCOc2ccc(C(=N)N)cc2)cc1", "ThT Assay": "+"}
{"compound": "N=C(N)c1ccc(OCOc2ccc(C(=N)N)cc2)cc1", "ThT Assay": "+"}
{"compound": "N=C(N)c1ccc(-c2cc3ccc(C(=N)N)cc3[nH]2)cc1", "ThT Assay": "+"}

# input Give the reported ThT Assay for this compound. "N=C(N)CCCOc1ccc(C(=N)N)cc1"
# output +

# input Give the reported ThT Assay for this compound. N=C(N)c1ccc(OCCC(O)COc2ccc(C(=N)N)cc2)cc1 (centres unmarked)
# output +

# input Give the reported ThT Assay for this compound. "c1cc(COc2ccc(C3=NCCN3)cc2)ccc1COc1ccc(C2=NCCN2)cc1"
# output pr

# input Give the reported ThT Assay for this compound. "Cl.N=C(N)c1ccccc1"
# output −

# input Give the reported ThT Assay for this compound. "c1cc(C2=NCCN2)ccc1OCCOCCOc1ccc(C2=NCCN2)cc1"
# output +

# input Give the reported ThT Assay for this compound. "c1cc(COc2ccc(C3=NCCN3)cc2)cc(COc2ccc(C3=NCCN3)cc2)c1"
# output +

# input Give the reported ThT Assay for this compound. "N=C(N)c1ccc(OCc2ccc(COc3ccc(C(=N)N)cc3)cc2)cc1"
# output +

====

molecular target: Aβ40 (Homo sapiens, UniProt P05067); construct: 200 μM of a test compound and 20 μM of solubilized Aβ40; test: mass spectroscopy (MS) assay, binding to Aβ; design: key: “+” = active; “−” = inactive; “pr” = promoting; details: 200 μM test compound, 20 μM solubilized Aβ40, pH 7.4; ability to bind to Aβ
measured-endpoint: MS Assay

{"molecule": "N=C(N)c1cccc(OCc2ccccc2)c1 [Compound 68]", "reported-value": "−"}
{"molecule": "CC(C)NC(=N)c1cccc(COc2cccc3c(OCc4cccc(C(=N)NC(C)C)c4)cccc23)c1 [Compound 60]", "reported-value": "+"}
{"molecule": "Cc1nc(-c2ccc(C(=N)N)cc2)cc(-c2ccc(C(=N)N)cc2)n1 [Compound 106]", "reported-value": "+"}
{"molecule": "Cl.N=C(N)c1ccc(OCCCCCCCC(=O)O)cc1 [Compound 42]", "reported-value": "+"}
{"molecule": "N=C(N)c1ccc(-c2ccc(-c3ccc(C(=N)N)cc3)o2)cc1 [Compound 99]", "reported-value": "+"}
{"molecule": "N=C(N)c1ccc(OCCCCCCCCCBr)cc1 [Compound 43]", "reported-value": "+"}
{"molecule": "CCc1ccc(CCc2ccc(-c3nc4ccc(C(=N)N)cc4[nH]3)cc2)cc1 [Compound 125]", "reported-value": "+"}
{"molecule": "N=C(N)c1ccc2[nH]c(-c3ccccc3)nc2c1 [Compound 81]", "reported-value": "+"}
{"molecule": "N=C(N)CCCOc1ccc(C(=N)N)cc1 [Compound 41]", "reported-value": "+"}
{"molecule": "N=C(N)c1ccc2nc(-c3ccc(C4CC4c4ccc(-c5nc6ccc(C(=N)N)cc6[nH]5)cc4)cc3)[nH]c2c1 (stereo not drawn) [Compound 115]", "reported-value": "+"}

Attention now shifts to the item below.
# input // fetch MS Assay; item: N=C(N)c1ccc(-c2cc(-c3cccc(C(=N)N)c3)on2)cc1 [Compound 82] ; system: Aβ40 (Homo sapiens, UniProt P05067)
# output −
